B1: PhoQ; a variant is named by its letters at X, in order, P23837 (parent)
chain: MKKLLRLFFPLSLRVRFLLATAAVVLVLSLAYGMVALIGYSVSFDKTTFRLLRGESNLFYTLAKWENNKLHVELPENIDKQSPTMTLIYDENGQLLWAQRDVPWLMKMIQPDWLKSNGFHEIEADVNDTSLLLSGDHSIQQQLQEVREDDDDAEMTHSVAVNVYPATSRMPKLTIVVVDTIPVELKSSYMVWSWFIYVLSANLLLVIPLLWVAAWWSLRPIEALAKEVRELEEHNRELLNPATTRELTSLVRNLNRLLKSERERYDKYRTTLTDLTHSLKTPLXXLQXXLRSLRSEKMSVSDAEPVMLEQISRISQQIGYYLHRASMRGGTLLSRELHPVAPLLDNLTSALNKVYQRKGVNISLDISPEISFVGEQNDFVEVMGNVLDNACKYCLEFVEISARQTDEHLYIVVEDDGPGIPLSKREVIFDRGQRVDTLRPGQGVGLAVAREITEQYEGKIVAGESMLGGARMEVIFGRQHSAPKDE

Variants of: B1
Assay: enrichment ratio after two sorts for PhoP signalling (ratio (wild type AVST 3.29)); higher = more functional
Conditions: with PhoP (E. coli)
Over roughly 140,000 sequences, “enrichment ratio after two sorts for PhoP signalling” has its median near 0; the highest 2% begin near 11. This excerpt belongs to a sample that is enriched for the highest values.
metric-name: enrichment ratio
Give the value as a plain number.

Need enrichment ratio of `FGGQ` , thanks.
3.04

Need enrichment ratio of `TSSF` , thanks.
9.67

Need enrichment ratio of `PSYQ` , thanks.
1.11

Next:
Need enrichment ratio of `FGMS` , thanks.
0.618

Need enrichment ratio of `CFSS` , thanks.
11.9

Need enrichment ratio of `FGMV` , thanks.
16.7

Need enrichment ratio of `TFSS` , thanks.
11.4

Need enrichment ratio of `VSCI` , thanks.
7.51

Need enrichment ratio of `TGSS` , thanks.
11
